# ASSAY PROCEDURE: clinical
# CONDITION LABEL: male, human, in vivo, sc, 240 mg
Square brackets hold non-standard residues; d marks the D form. Peptide text beside a SMILES is read from it. * marks the point of attachment. dPhe(4-NHCONH2) = NC(=O)Nc1ccc(C[C@@H](N)C(=O)O)cc1; Dihydroorotyl(S) = O=C1C[C@@H](C(=O)*)NC(=O)N1; dPhe(4-Cl) = N[C@H](Cc1ccc(Cl)cc1)C(=O)O; Phe(4-NH2) = Nc1ccc(C[C@H](N)C(=O)O)cc1; d2Nal = N[C@H](Cc1ccc2ccccc2c1)C(=O)O; Lys(iPr) = CC(C)NCCCC[C@H](N)C(=O)O; d3Pal = N[C@H](Cc1cccnc1)C(=O)O
MEASUREMENT NAME: Cmax (ng/mL)
One number for each entry, in ng/mL.

Given the entry CC(=O)N[C@H](Cc1ccc2ccccc2c1)C(=O)N[C@H](Cc1ccc(Cl)cc1)C(=O)N[C@H](Cc1cccnc1)C(=O)N[C@@H](CO)C(=O)N[C@@H](Cc1ccc(NC(=O)[C@@H]2CC(=O)NC(=O)N2)cc1)C(=O)N[C@H](Cc1ccc(NC(N)=O)cc1)C(=O)N[C@@H](CC(C)C)C(=O)N[C@@H](CCCCNC(C)C)C(=O)N1CCC[C@H]1C(=O)N[C@H](C)C(N)=O [degarelix] (Ac-[d2Nal][dPhe(4-Cl)][d3Pal]S[Phe(4-NH2)](Dihydroorotyl(S))[dPhe(4-NHCONH2)]L[Lys(iPr)]P[dA]-NH2) , report its measured Cmax.
53.4

====

# ASSAY PROCEDURE: clinical
# CONDITION LABEL: male, human, in vivo, sc, 240 mg, median terminal half-life
Square brackets hold non-standard residues; d marks the D form. Peptide text beside a SMILES is read from it. * marks the point of attachment. dPhe(4-NHCONH2) = NC(=O)Nc1ccc(C[C@@H](N)C(=O)O)cc1; Dihydroorotyl(S) = O=C1C[C@@H](C(=O)*)NC(=O)N1; dPhe(4-Cl) = N[C@H](Cc1ccc(Cl)cc1)C(=O)O; Phe(4-NH2) = Nc1ccc(C[C@H](N)C(=O)O)cc1; d2Nal = N[C@H](Cc1ccc2ccccc2c1)C(=O)O; Lys(iPr) = CC(C)NCCCC[C@H](N)C(=O)O; d3Pal = N[C@H](Cc1cccnc1)C(=O)O
MEASUREMENT NAME: half-life

# query: half-life of entry CC(=O)N[C@H](Cc1ccc2ccccc2c1)C(=O)N[C@H](Cc1ccc(Cl)cc1)C(=O)N[C@H](Cc1cccnc1)C(=O)N[C@@H](CO)C(=O)N[C@@H](Cc1ccc(NC(=O)[C@@H]2CC(=O)NC(=O)N2)cc1)C(=O)N[C@H](Cc1ccc(NC(N)=O)cc1)C(=O)N[C@@H](CC(C)C)C(=O)N[C@@H](CCCCNC(C)C)C(=O)N1CCC[C@H]1C(=O)N[C@H](C)C(N)=O [degarelix] (Ac-[d2Nal][dPhe(4-Cl)][d3Pal]S[Phe(4-NH2)](Dihydroorotyl(S))[dPhe(4-NHCONH2)]L[Lys(iPr)]P[dA]-NH2)
~43 days

====

# ASSAY PROCEDURE: clinical
# CONDITION LABEL: male, human, in vivo, sc, 240 mg
Square brackets hold non-standard residues; d marks the D form. Peptide text beside a SMILES is read from it. * marks the point of attachment. dPhe(4-NHCONH2) = NC(=O)Nc1ccc(C[C@@H](N)C(=O)O)cc1; Dihydroorotyl(S) = O=C1C[C@@H](C(=O)*)NC(=O)N1; dPhe(4-Cl) = N[C@H](Cc1ccc(Cl)cc1)C(=O)O; Phe(4-NH2) = Nc1ccc(C[C@H](N)C(=O)O)cc1; d2Nal = N[C@H](Cc1ccc2ccccc2c1)C(=O)O; Lys(iPr) = CC(C)NCCCC[C@H](N)C(=O)O; d3Pal = N[C@H](Cc1cccnc1)C(=O)O
MEASUREMENT NAME: Tmax (h)
Answers are plain numbers, in h.

So what's the measured Tmax for this one? CC(=O)N[C@H](Cc1ccc2ccccc2c1)C(=O)N[C@H](Cc1ccc(Cl)cc1)C(=O)N[C@H](Cc1cccnc1)C(=O)N[C@@H](CO)C(=O)N[C@@H](Cc1ccc(NC(=O)[C@@H]2CC(=O)NC(=O)N2)cc1)C(=O)N[C@H](Cc1ccc(NC(N)=O)cc1)C(=O)N[C@@H](CC(C)C)C(=O)N[C@@H](CCCCNC(C)C)C(=O)N1CCC[C@H]1C(=O)N[C@H](C)C(N)=O [degarelix] (Ac-[d2Nal][dPhe(4-Cl)][d3Pal]S[Phe(4-NH2)](Dihydroorotyl(S))[dPhe(4-NHCONH2)]L[Lys(iPr)]P[dA]-NH2)
33.6

Numbers sourced from patent US9877999B2.
